- assay_target: cynomolgus monkey (cyno) TIGIT protein (cynomolgus monkey, UniProt A0A7N9I9V4 89-209)
- Sequence (A0A7N9I9V4 entry or part of it): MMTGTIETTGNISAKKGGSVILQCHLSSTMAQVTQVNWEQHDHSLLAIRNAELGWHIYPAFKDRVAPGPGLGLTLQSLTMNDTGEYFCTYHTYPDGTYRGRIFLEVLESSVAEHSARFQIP
- assay_details: SPR, captured mAb
- Text: Briefly, a series S CM5 biosensor chip was activated with N-ethyl-N′-(3-dimethylaminopropyl)-carbodiimide hydrochloride (EDC) and N-hydroxysuccinimide (NHS) reagents according to the supplier's (GE Healthcare Biosciences, Piscataway, N.J.) instructions, and a human antibody capture kit was applied to couple goat anti-human Fc IgGs in order to achieve approximately 10,000 response units (RU) on each flow cell, followed by blocking un-reacted groups with 1M ethanolamine. […]
property_measured: pKd
Give only the number. pKd is defined as minus log10 of concentration in molar units.

Measured pKd of h7E7.L5aH9a (antibody, V domains shown, Final humanized 7E7; keeps rat VH I47 and VL Y71; FR/HVR pieces) VH: EVQLVQSGAEVKKPGASVKVSCKASGYTFTEYSIYWVRQAPGQRLEIMGRIDPKNGRTYYVDKFKNRVTITRDTSASTAYMELSSLRSEDTAVYYCARIYGFYFDFWGQGTLVTVSS VL: DIQLTQSPSFLSASVGDRVTITCKGSQNVNKYLVWYQQKPGKAPKLLIYNTDNLQSGVPSRFSGSGSGTEYTLTISSLQPEDFATYYCYQYNNGFTFGQGTKVEIK : 9.51

Measured pKd of rat15C8 (antibody, V domains shown, SD rat-derived; rat V domains as FR/HVR pieces; also called 1.15C8; Chimeric 1.15C8) VH: EVQLQQSGPELQRPGASVKLSCKASGYTFTEHSIYWLKQRPKQSLEIIGRIDPKNGRTYFVDKFKNRATLTTNTSSNTAYMQLSSLTSEDTAIYFCARIDGFYFDFWGQGVMVTASS VL: NIHLTQSPSLLSASVGDRVTLSCKGSQNVNKYLVWYQQKLGEAPKLLIYSTDNLQSGIPSRFSGSGSGTDYTLTISSLQPEDAATYFCYQYNNGFTFGSGTKLEIK : 9.60

Measured pKd of rat6B2 (antibody, V domains shown, SD rat-derived; rat V domains as FR/HVR pieces; also called 1.6B2; Chimeric 1.6B2) VH: QVSLKESGPGILQPSHTLSLTCSFSGFSLSTYGMGVSWIRQPSEKGLEWLASIWWNGNTYYNPSLKSRLTVSKDASNDQAFLNVTSVDTTDTATYYCAHTGGAVITWFAYWGQGTLVTVSS VL: NIVMTQSPKSMSISVGDRVTMNCKASQSVGKNIAWYQQKPGQSPKLLIYYASNRYTGVPDRFTGGGSGTDFTLTINTVQAEDAAFFYCQHIYNSPYPFGTGTKLEIK : 9.54

Measured pKd of h7E7.L1H7 (antibody, V domains shown, VH: F91Y against h7E7.L1H1; FR/HVR pieces) VH: EVQLVQSGAEVKKPGASVKVSCKASGYTFTEYSIYWVRQAPGQRLEIIGRIDPKNGRTYYVDKFKNRATLTADTSASTAYMELSSLRSEDTAVYYCTRIYGFYFDFWGQGTLVTVSS VL: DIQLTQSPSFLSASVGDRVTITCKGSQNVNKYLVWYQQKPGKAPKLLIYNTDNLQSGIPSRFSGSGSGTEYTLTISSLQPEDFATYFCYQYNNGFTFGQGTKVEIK : 9.37

Measured pKd of h15C8.L1H6 (antibody, V domains shown, VH: L69I (printed L691) against h15C8.L1H1; FR/HVR pieces) VH: EVQLVQSGAEVKKPGASVKVSCKASGYTFTEHSIYWLRQAPGQRLEIIGRIDPKNGRTYFVDKFKNRATITTDTSASTAYMELSSLRSEDTAVYFCARIDGFYFDFWGQGTLVTVSS VL: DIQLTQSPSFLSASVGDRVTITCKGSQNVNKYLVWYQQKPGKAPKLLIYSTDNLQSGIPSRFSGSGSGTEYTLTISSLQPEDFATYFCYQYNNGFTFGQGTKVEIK : 9.08

Reference source: patent US20220064286A1
